experiment: chemical genetic growth profiling, strain panel (AID 1159580);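 also: tested at 20 µM; growth read once vehicle control cultures reached saturation at 30 °C; 1 = growth at the plate median or of vehicle wells; lower values mean less growth of the strain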; details: S. cerevisiae deletion strains, growth OD, locus YFR010W, strain ubp6, hits give low values
Out of some 5,500 compounds screened, about 2,000 (36%) were called active. Inconclusive results (about 18%) are left out. This is one part of the list.

compound | normalized growth
NS(=O)(=O)c1cc2c(cc1Cl)NCNS2(=O)=O | 1
COc1ccc(CC(=O)c2ccc(O)cc2O)cc1 | 1.01
Oc1cccc2cccnc12 | 0.0669
O=c1c(O)cccc2cc(O)c(O)c(O)c12 | 0.509
O=c1c(O)c(-c2ccccc2)oc2cccc(O)c12 | 0.726
COc1cc(O)ccc1C(C)=O | 1.02
CC(=O)OC1CCC2(O)CC1(C)CCC1C2CC1(C)C (configuration not stated) | 1.04
